- System: cell attachment and SEB IL-2 release
- test.description: cells
- Format: cell-based
measured.metric: pIC50
Remember, pIC50 is on a log scale: it is -log10 of the molar concentration.

Specify the recorded pIC50 for CS(=O)(=O)c1cccc(C[C@H](NC(=O)c2c(Cl)cc3c(c2Cl)CCN(C(=O)c2ccc4ccoc4c2)C3)C(=O)O)c1 [compound of Formula I] , system: cell attachment and SEB IL-2 release.
8.70

###

Known EC50 of a selection of compounds
- System: human mononuclear cells (PBMC) stimulated with staphylococcal enterotoxin B (SEB)
- test.description: cells
- Assay type: cell-based
- protocol.conditions: read-out: EC50 Cytokine Release IL-12p40

[[record]]
compound = "CS(=O)(=O)c1cccc(C[C@H](NC(=O)c2c(Cl)cc3c(c2Cl)CCN(C(=O)c2ccc4ccoc4c2)C3)C(=O)O)c1"
readout_value = "> 1000 µM"


// switching to the query compound
Output measured EC50 for this item: O=C(NC(Cc1cc(=O)[nH]c2ccccc12)C(=O)O)c1ccc(Cl)cc1 (centres unmarked) [Rebamipide, reference compound]
> 1000 µM
